The values you see were collected from patent EP1077981B1.

method: Pharmacokinetic experiment (blood concentration by HPLC)
Format: in vivo, mice
experimental.conditions: male, mouse, blood, po, 20 mg/kg, Oral administration, time 40 min, read-out: blood concentration, mouse-3
metric: concentration at 40 min (ng/mL)
Write the answer as a number in ng/mL, unit excluded.

Problem: Could you share which concentration at 40 min value was measured for CO/N=C(\C(=O)NC1C(=O)N2C(C(=O)O)=C(Sc3cc(N)nc(N)n3)CSC12)c1csc(N)n1 (stereo not shown) ?
Solution: 350

* * *

Recorded half-life values for a group of molecules are listed next.
method: Pharmacokinetic experiment (blood concentration by HPLC)
Assay type: in vivo, mice
experimental.conditions: male, mouse, blood; mice; Oral administration, 20mg/kg
Answer format: number, then unit.

Solved cases (2 shown):
C=CC1=C(C(=O)O)N2C(=O)[C@@H](NC(=O)/C(=N\O)c3csc(N)n3)[C@H]2SC1 [Cefdinir, reference compound]
1.23 h
Nc1cc(SCSC2=C(C(=O)O)N3C(=O)C(NC(=O)/C(=N\O)c4nc(N)sc4Cl)C3SC2)nc(N)n1 (stereo not drawn)
2.8 h

Next item in the queue.
Problem: Could you share which half-life value was measured for CO/N=C(\C(=O)NC1C(=O)N2C(C(=O)O)=C(SCc3cnc(N)nc3N)CSC12)c1csc(N)n1 (stereo not drawn) ?
Solution: 1.15 h

* * *

method: Pharmacokinetic experiment (blood concentration by HPLC)
Type: in vivo, mice
experimental.conditions: male, mouse, blood, po, 20 mg/kg, Oral administration, time 10 min, read-out: blood concentration, mouse-1
metric: concentration at 10 min (ng/mL)
Write the answer as a number in ng/mL, unit excluded.

Problem: Could you share which concentration at 10 min value was measured for CO/N=C(\C(=O)NC1C(=O)N2C(C(=O)O)=C(Sc3cc(N)nc(N)n3)CSC12)c1csc(N)n1 (stereo not shown) ?
Solution: 160
